Target: furin, P09958;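 note: purified furin at 1:10 enzyme:substrate in 50 mM HEPES pH 7.5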
Sequence (P09958 whole entry): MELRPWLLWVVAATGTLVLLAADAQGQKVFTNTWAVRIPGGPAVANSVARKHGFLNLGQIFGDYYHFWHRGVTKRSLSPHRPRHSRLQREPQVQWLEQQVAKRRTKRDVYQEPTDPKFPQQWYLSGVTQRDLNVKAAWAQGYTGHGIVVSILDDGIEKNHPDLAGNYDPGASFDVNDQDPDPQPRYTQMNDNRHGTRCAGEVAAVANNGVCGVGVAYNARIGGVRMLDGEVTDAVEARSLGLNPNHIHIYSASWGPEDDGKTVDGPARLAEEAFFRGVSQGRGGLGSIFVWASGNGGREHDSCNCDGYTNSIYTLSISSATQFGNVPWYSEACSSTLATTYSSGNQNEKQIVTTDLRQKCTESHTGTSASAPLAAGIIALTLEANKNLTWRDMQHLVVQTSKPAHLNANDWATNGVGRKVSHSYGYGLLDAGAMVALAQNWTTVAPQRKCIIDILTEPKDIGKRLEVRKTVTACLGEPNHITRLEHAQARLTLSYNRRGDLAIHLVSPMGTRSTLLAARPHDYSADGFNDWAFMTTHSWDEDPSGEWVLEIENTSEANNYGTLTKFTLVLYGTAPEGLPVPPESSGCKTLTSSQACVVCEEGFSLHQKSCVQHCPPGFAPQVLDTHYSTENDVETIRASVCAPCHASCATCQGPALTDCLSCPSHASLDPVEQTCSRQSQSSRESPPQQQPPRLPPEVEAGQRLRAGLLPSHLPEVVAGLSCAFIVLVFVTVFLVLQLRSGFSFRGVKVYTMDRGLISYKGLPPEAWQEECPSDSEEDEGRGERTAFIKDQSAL
Experiment: furin cleavage Z-score vs untreated control; higher = more cleavage, active = 3.5 or more, inactive = 1 or less, 8 variable residues between constant flanks
Details: 7.5 min
The list shows a part of the results. The hit rate among all sequences tested is not known here.

>  <sequence_input>
CALVVRGPPGAGNASASA [FS-1846]

>  <furin cleavage Z-score>
-0.565

$$$$
>  <sequence_input>
CAASLAGTHGAGNASASA [HC539]

>  <furin cleavage Z-score>
0.00941

$$$$
>  <sequence_input>
CAQRKRGGTAAGNASASA [WN1]

>  <furin cleavage Z-score>
-1.04

$$$$
>  <sequence_input>
CARGKRHATKAGNASASA [FS-2015]

>  <furin cleavage Z-score>
7.59

$$$$
>  <sequence_input>
CAMEHCSQHLAGNASASA [HC1715]

>  <furin cleavage Z-score>
-0.776

$$$$
>  <sequence_input>
CAYIPRILGPAGNASASA [FS-1875]

>  <furin cleavage Z-score>
-0.849

$$$$
>  <sequence_input>
CAEVPCHRASAGNASASA [HC2383]

>  <furin cleavage Z-score>
-0.108

$$$$
